# ASSAY EXPLANATION: DRUGMATRIX: Interleukin IL-1 radioligand binding (ligand: [125I] interleukin 1beta)
# Type: cell membranes, Membrane
# RECORDED CONDITIONS: nih3t3; Not Active = under 50% inhibition at 10 µM
READOUT NAME: IC50

Query string: Data request, read-out IC50, for CNS(=O)(=O)Cc1ccc2[nH]cc(CCN(C)C)c2c1
Result string: Not Active

Query string: Data request, read-out IC50, for CNC(=C[N+](=O)[O-])NCCSCc1csc(CN(C)C)n1 [NIZATIDINE]
Result string: Not Active

Query string: Data request, read-out IC50, for O=c1cc(-c2ccccc2)oc2ccc3ccccc3c12 [BETA-NAPHTHOFLAVONE]
Result string: Not Active

----------
# TARGET OF ASSAY: Polyunsaturated fatty acid lipoxygenase ALOX15 (Oryctolagus cuniculus); further: in other assays of this panel Not Active means under 50% inhibition at 10 µM;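 further: inhibition of 15-lipoxygenase enzyme activity measured with linoleic acid as the substrate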
# Sequence (P12530 whole entry): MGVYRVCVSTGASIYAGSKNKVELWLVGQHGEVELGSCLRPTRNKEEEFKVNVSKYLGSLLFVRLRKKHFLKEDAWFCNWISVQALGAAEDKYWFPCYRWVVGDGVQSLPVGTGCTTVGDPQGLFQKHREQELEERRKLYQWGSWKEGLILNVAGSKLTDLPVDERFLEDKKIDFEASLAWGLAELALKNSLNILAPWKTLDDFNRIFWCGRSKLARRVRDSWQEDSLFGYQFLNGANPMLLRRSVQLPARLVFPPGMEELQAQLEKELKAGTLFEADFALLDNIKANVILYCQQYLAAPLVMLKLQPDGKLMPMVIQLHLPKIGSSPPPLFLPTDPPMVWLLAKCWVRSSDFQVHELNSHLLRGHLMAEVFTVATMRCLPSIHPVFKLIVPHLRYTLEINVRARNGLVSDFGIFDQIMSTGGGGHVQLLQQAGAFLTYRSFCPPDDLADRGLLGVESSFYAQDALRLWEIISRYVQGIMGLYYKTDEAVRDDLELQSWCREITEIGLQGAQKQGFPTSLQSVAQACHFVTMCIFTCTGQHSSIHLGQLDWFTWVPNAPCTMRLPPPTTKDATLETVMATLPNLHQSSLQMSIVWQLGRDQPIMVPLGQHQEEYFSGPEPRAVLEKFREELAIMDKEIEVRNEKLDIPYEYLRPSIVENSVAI
# ASSAY EXPLANATION: biochemical
# Type: tissue-based, Reticulocytes
# RECORDED CONDITIONS: reticulocytes
READOUT NAME: IC50

Query string: Data request, read-out IC50, for CC(=O)OCC(CCn1cnc2cnc(N)nc21)COC(C)=O
Result string: Not Active

Query string: Data request, read-out IC50, for CCN(CC)CC#CCOC(=O)C(O)(c1ccccc1)C1CCCCC1 (stereo not given)
Result string: Not Active

Query string: Data request, read-out IC50, for CCOC(=O)[C@H](CCc1ccccc1)N[C@@H](C)C(=O)N1Cc2ccccc2C[C@H]1C(=O)O
Result string: Not Active

Query string: Data request, read-out IC50, for CCOC(=O)C1=C(C)NC(C)=C(C(=O)OC)C1c1cccc(Cl)c1Cl (stereo not given)
Result string: Not Active

---
Query string: Data request, read-out IC50, for CC(C)(C)NC[C@H](O)COc1nsnc1N1CCOCC1
Result string: Not Active

----------
# ASSAY EXPLANATION: DRUGMATRIX: Phosphodiesterase PDE3 enzyme inhibition (substrate: [3H]cAMP + cAMP)
# Format: tissue-based, Homo sapiens
# RECORDED CONDITIONS: platelet; Not Active = under 50% inhibition at 10 µM
READOUT NAME: Ki

Query string: Data request, read-out Ki, for Nc1nc2c(c(=O)[nH]1)N(C=O)C(CNc1ccc(C(=O)N[C@@H](CCC(=O)O)C(=O)O)cc1)CN2 (stereo partly drawn) [LEUCOVORIN]
Result string: Not Active

Query string: Data request, read-out Ki, for CC[C@H]1OC(=O)[C@H](C)[C@@H](O[C@H]2C[C@@](C)(OC)[C@@H](O)[C@H](C)O2)[C@H](C)[C@@H](O[C@@H]2O[C@H](C)C[C@H](N(C)C)[C@H]2O)[C@](C)(O)C[C@@H](C)CN(C)[C@H](C)[C@@H](O)[C@]1(C)O [AZITHROMYCIN]
Result string: Not Active

Query string: Data request, read-out Ki, for CNC(=C[N+](=O)[O-])NCCSCc1csc(CN(C)C)n1 [NIZATIDINE]
Result string: Not Active

----------
# TARGET OF ASSAY: Cytochrome P450 2A6 (Homo sapiens); further: in other assays of this panel Not Active means under 50% inhibition at 10 µM
# Sequence (P11509 whole entry): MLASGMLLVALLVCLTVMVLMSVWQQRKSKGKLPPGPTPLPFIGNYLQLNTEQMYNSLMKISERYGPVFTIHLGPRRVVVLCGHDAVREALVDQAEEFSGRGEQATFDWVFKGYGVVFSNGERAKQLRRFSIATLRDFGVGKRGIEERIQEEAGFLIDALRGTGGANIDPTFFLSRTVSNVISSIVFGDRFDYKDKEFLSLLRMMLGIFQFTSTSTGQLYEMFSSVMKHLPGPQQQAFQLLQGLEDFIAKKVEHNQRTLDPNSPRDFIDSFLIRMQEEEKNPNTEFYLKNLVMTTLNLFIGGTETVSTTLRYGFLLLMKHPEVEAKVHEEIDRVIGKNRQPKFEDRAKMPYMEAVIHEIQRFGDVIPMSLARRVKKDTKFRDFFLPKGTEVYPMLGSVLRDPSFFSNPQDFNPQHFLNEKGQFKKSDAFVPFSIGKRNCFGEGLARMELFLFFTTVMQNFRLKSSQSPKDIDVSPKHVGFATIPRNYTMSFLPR
# RECORDED CONDITIONS: bti-tn-5b1-4
READOUT NAME: IC50

Below, 6 compounds whose answers are already recorded.
Query string: Data request, read-out IC50, for CC(=O)O[C@]1(C(C)=O)CC[C@H]2[C@@H]3C=C(C)C4=CC(=O)CC[C@]4(C)[C@H]3CC[C@@]21C [MEGESTROL ACETATE]
Result string: Not Active

Query string: Data request, read-out IC50, for CC(C)(Sc1cc(C(C)(C)C)c(O)c(C(C)(C)C)c1)Sc1cc(C(C)(C)C)c(O)c(C(C)(C)C)c1 [PROBUCOL]
Result string: Not Active

Query string: Data request, read-out IC50, for C#C[C@]1(O)CC[C@H]2[C@@H]3CCC4=Cc5oncc5C[C@]4(C)[C@H]3CC[C@@]21C [DANAZOL]
Result string: Not Active

Query string: Data request, read-out IC50, for CC(=O)OCC(CCn1cnc2cnc(N)nc21)COC(C)=O [FAMCICLOVIR]
Result string: Not Active

Query string: Data request, read-out IC50, for CC(=O)O[C@]1(C(C)=O)CC[C@H]2[C@@H]3C=C(Cl)C4=CC(=O)[C@@H]5C[C@@H]5[C@]4(C)[C@H]3CC[C@@]21C [CYPROTERONE ACETATE]
Result string: Not Active

Query string: Data request, read-out IC50, for C[C@]12CCC(=O)C=C1CC[C@@H]1[C@@H]2[C@@H](O)C[C@@]2(C)[C@H]1CC[C@]2(O)C(=O)CO [HYDROCORTISONE]
Result string: Not Active

// moving on: another record for IC50
Query string: Data request, read-out IC50, for NC(=O)N1c2ccccc2C=Cc2ccccc21 [CARBAMAZEPINE]
Result string: Not Active

----------
# TARGET OF ASSAY: Progesterone receptor (Bos taurus, UniProt Q690N0)
# Sequence (Q690N0 whole entry): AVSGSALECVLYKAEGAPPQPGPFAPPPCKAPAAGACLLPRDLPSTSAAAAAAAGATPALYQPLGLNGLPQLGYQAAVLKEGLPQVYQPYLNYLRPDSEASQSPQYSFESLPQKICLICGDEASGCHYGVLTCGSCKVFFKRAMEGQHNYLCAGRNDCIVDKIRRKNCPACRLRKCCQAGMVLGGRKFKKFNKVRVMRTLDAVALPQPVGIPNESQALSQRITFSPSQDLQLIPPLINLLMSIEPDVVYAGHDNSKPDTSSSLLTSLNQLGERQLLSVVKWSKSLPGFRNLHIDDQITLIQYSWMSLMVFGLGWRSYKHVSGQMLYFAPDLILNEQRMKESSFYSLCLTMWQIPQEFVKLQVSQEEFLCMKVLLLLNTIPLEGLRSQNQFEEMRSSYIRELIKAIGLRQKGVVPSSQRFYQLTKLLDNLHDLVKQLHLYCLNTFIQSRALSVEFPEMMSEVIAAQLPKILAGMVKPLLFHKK
# ASSAY EXPLANATION: DRUGMATRIX: Progesterone radioligand binding (ligand: [3H] R-5020)
# Assay type: tissue-based, Uterus
# RECORDED CONDITIONS: Not Active = under 50% inhibition at 10 µM; read-out: Ki
Items are presented alongside their recorded Ki.
Reply with just the number (in nM).

Below, 5 compounds whose answers are already recorded.
Query string: Entry CC(=O)O[C@]1(C(C)=O)CC[C@H]2[C@@H]3C=C(Cl)C4=CC(=O)[C@@H]5C[C@@H]5[C@]4(C)[C@H]3CC[C@@]21C [CYPROTERONE ACETATE] , system Progesterone receptor (Bos taurus, UniProt Q690N0): what Ki was measured?
Result string: 4.84

Query string: Entry C#C[C@]1(O)CC[C@H]2[C@@H]3CCc4cc(O)ccc4[C@H]3CC[C@@]21C , system Progesterone receptor (Bos taurus, UniProt Q690N0): what Ki was measured?
Result string: 139

Query string: Entry CC[C@]1(O)CC[C@H]2[C@@H]3CCC4=CCCC[C@@H]4[C@H]3CC[C@@]21C , system Progesterone receptor (Bos taurus, UniProt Q690N0): what Ki was measured?
Result string: 26

Query string: Entry CC(=O)O[C@]1(C(C)=O)CC[C@H]2[C@@H]3C=C(C)C4=CC(=O)CC[C@]4(C)[C@H]3CC[C@@]21C [MEGESTROL ACETATE] , system Progesterone receptor (Bos taurus, UniProt Q690N0): what Ki was measured?
Result string: 1.44

Query string: Entry C#C[C@]1(O)CC[C@H]2[C@@H]3CCC4=Cc5oncc5C[C@]4(C)[C@H]3CC[C@@]21C , system Progesterone receptor (Bos taurus, UniProt Q690N0): what Ki was measured?
Result string: 34

---
Query string: Entry C[C@]12CC[C@H]3[C@@H](CCC4=CC(=O)CC[C@@]43C)[C@@H]1CC[C@@H]2O , system Progesterone receptor (Bos taurus, UniProt Q690N0): what Ki was measured?
Result string: 252
